The measurements presented in this section are drawn from BindingDB's records for doi:10.1007/s10822-022-00478-x.

target: cAMP and cAMP-inhibited cGMP 3',5'-cyclic phosphodiesterase 10A (Homo sapiens, UniProt Q9Y233); assay: PDE10A assay
pIC50: −log10 of the molar value.
Value kind: pIC50

INSERT INTO measurements (compound, measurement) VALUES
  ('Cc1cn2nc(C#Cc3nc(N4CCCC4)nn3C)ccc2n1', 8.04),
  ('Cn1ncc(C(=O)N2CCC2)c1C(=O)Nc1cc(-c2ccccn2)n[nH]1 [Roche-Dataset for PDE10A, Compound 664]', 8.08),
  ('Cn1ncc(C(=O)N2CCC2)c1C(=O)N[C@@H]1CCn2cc(-c3ccccc3OC(F)F)nc2C1 [Roche-Dataset for PDE10A, Compound 257]', 8.22),
  ('Cc1ncc(C(=O)Nc2ccn3nc(-c4ccccc4)nc3c2)cn1 [Roche-Dataset for PDE10A, Compound 813]', 5.00),
  ('CSc1ncc(Br)c(C(=O)Nc2cc(-c3ccccn3)nn2C)n1 [Roche-Dataset for PDE10A, Compound 723]', 5.12),
  ('CC(C)C[C@H](CO)NC(=O)c1nc(C2CC2)cnc1Nc1cncnc1 [Roche-Dataset for PDE10A, Compound 939]', 5.61),
  ('O=C(Nc1cc(-c2ccc3ccccc3n2)nn1CCO)c1nc(C2CC2)ccc1Nc1cncnc1', 10.05),
  ('Cn1cc(-c2ccccc2)nc1COc1cc(N2CCOCC2)nc(-c2cccnc2)n1 [Roche-Dataset for PDE10A, Compound 312]', 6.57),
  ('Cc1cc(C)c2c(NC(=O)c3c(C(=O)N4CCC4)cnn3C)nn(C)c2n1 [Roche-Dataset for PDE10A, Compound 1160]', 5.37),
  ('O=C(Nc1cccc(C(=O)N2CCOCC2)n1)c1nc(C2CC2)cnc1Nc1cncnc1 [Roche-Dataset for PDE10A, Compound 920]', 8.13),
  ('Cc1nc(-c2ccc(Cl)cc2)oc1C(=O)Nc1cc(-c2ccccn2)nn1C [Roche-Dataset for PDE10A, Compound 947]', 6.01),
  ('Cn1cc(-c2ccccc2)nc1CCc1cccc(-c2ccccn2)n1 [Roche-Dataset for PDE10A, Compound 237]', 5.62),
  ('Cc1ncc(C)n2nc(/C=C/c3nc(N4CC[C@@H](C)C4)nn3C)nc12 [Roche-Dataset for PDE10A, Compound 560]', 7.62),
  ('Cn1ccc(NC(=O)c2c(C(=O)N3CCC3)cnn2C)n1 [Roche-Dataset for PDE10A, Compound 1137]', 5.85);

###

molecular target: cAMP and cAMP-inhibited cGMP 3',5'-cyclic phosphodiesterase 10A (Homo sapiens)
Threshold-based label: IC50 under 0.008 µM gives y, IC50 not under 0.008 µM gives n.

INSERT INTO assay_data (molecule, target_under_test, discrete_label) VALUES
  ('Cn1ncc(C(=O)N2CCC2)c1C(=O)Nc1ccn(CCN2CCOCC2)n1 [Roche-Dataset for PDE10A, Compound 1030]', 'cAMP and cAMP-inhibited cGMP 3'',5''-cyclic phosphodiesterase 10A (Homo sapiens)', 'n'),
  ('Cc1nc(CCNC(=O)c2nc(C3CC3)ccc2Nc2cncnc2)n[nH]1 [Roche-Dataset for PDE10A, Compound 986]', 'cAMP and cAMP-inhibited cGMP 3'',5''-cyclic phosphodiesterase 10A (Homo sapiens)', 'n'),
  ('Cn1ncc(C(=O)N2CC(F)C2)c1C(=O)Nc1ccn2nc(N3CCOCC3)nc2c1 [Roche-Dataset for PDE10A, Compound 372]', 'cAMP and cAMP-inhibited cGMP 3'',5''-cyclic phosphodiesterase 10A (Homo sapiens)', 'y'),
  ('CCOc1ccccc1C(=O)Nc1cc(-c2ccccn2)n[nH]1 [Roche-Dataset for PDE10A, Compound 876]', 'cAMP and cAMP-inhibited cGMP 3'',5''-cyclic phosphodiesterase 10A (Homo sapiens)', 'n'),
  ('Cc1ncn(C)c1C(=O)Nc1cc(-c2ccccn2)nn1C [Roche-Dataset for PDE10A, Compound 772]', 'cAMP and cAMP-inhibited cGMP 3'',5''-cyclic phosphodiesterase 10A (Homo sapiens)', 'n'),
  ('Cc1c(Cl)cc(C(F)F)c2nc(CCc3nc(N4CCCC4)nn3C)nn12 [Roche-Dataset for PDE10A, Compound 187]', 'cAMP and cAMP-inhibited cGMP 3'',5''-cyclic phosphodiesterase 10A (Homo sapiens)', 'y'),
  ('Cc1cc(NC(=O)c2c(C(=O)N3CCC3)cnn2C)n[nH]1 [Roche-Dataset for PDE10A, Compound 1149]', 'cAMP and cAMP-inhibited cGMP 3'',5''-cyclic phosphodiesterase 10A (Homo sapiens)', 'n'),
  ('Cn1ncc(C(=O)N2CCOCC2)c1C(=O)Nc1cn(-c2ccc3ccccc3n2)cn1 [Roche-Dataset for PDE10A, Compound 222]', 'cAMP and cAMP-inhibited cGMP 3'',5''-cyclic phosphodiesterase 10A (Homo sapiens)', 'y'),
  ('Cc1c(Cl)cc(Cl)c2nc(CCc3cn4c(n3)SCC4)nn12 [Roche-Dataset for PDE10A, Compound 760]', 'cAMP and cAMP-inhibited cGMP 3'',5''-cyclic phosphodiesterase 10A (Homo sapiens)', 'n'),
  ('O=C(Nc1snnc1-c1ccccc1)c1nc(C2CC2)ccc1Nc1cncnc1 [Roche-Dataset for PDE10A, Compound 818]', 'cAMP and cAMP-inhibited cGMP 3'',5''-cyclic phosphodiesterase 10A (Homo sapiens)', 'y'),
  ('CNC(=O)c1c(F)cc(F)cc1NC(=O)c1nc(C2CC2)cnc1Nc1cncnc1 [US8703768, 299]', 'cAMP and cAMP-inhibited cGMP 3'',5''-cyclic phosphodiesterase 10A (Homo sapiens)', 'y'),
  ('Cn1cc(-c2ccccc2)nc1CCc1nc(-c2ccccc2)cc(=O)[nH]1 [Roche-Dataset for PDE10A, Compound 94]', 'cAMP and cAMP-inhibited cGMP 3'',5''-cyclic phosphodiesterase 10A (Homo sapiens)', 'n'),
  ('Cc1cc(C(=O)Nc2cc3[nH]c(-c4ccccc4)nc3cc2C(F)(F)F)n(C)n1 [Roche-Dataset for PDE10A, Compound 731]', 'cAMP and cAMP-inhibited cGMP 3'',5''-cyclic phosphodiesterase 10A (Homo sapiens)', 'n'),
  ('Cc1ncc(C)n2nc(CCc3nc(C)n(-c4ccccc4)n3)nc12 [Roche-Dataset for PDE10A, Compound 456]', 'cAMP and cAMP-inhibited cGMP 3'',5''-cyclic phosphodiesterase 10A (Homo sapiens)', 'n');

###

Measured IC50, listed per entry.
biological target: cAMP and cAMP-inhibited cGMP 3',5'-cyclic phosphodiesterase 10A (Homo sapiens, UniProt Q9Y233)
Value kind: IC50 (nM)

INSERT INTO assay_data (molecule, value_kind, measurement) VALUES
  ('CN1CCN(c2cccc(NC(=O)c3nc(C4CC4)cnc3Nc3cncnc3)c2)CC1 [Roche-Dataset for PDE10A, Compound 741]', 'IC50', 71),
  ('CCN(C)c1nc2cc(NC(=O)c3c(C(=O)N4CCOCC4)cnn3C)ccn2n1 [Roche-Dataset for PDE10A, Compound 493]', 'IC50', 5.55),
  ('Cn1ncc(C(=O)N2CCC2)c1C(=O)Nc1nnc(-c2ccccn2)o1 [Roche-Dataset for PDE10A, Compound 1032]', 'IC50', 10000),
  ('CNC(=O)c1cc(OC)ccc1NC(=O)c1nc(C2CC2)cnc1Nc1cncnc1 [US8703768, 225]', 'IC50', 0.48);

###

biological target: cAMP and cAMP-inhibited cGMP 3',5'-cyclic phosphodiesterase 10A (Homo sapiens, UniProt Q9Y233)
pIC50: −log10 of the molar value.
pIC50 reference
Value kind: pIC50

INSERT INTO measurements (compound, measurement) VALUES
  ('Cc1c(C(F)F)nc2ccc(CCc3nc(-c4ccccc4)cn3C)nn12', 8.25),
  ('COc1cc(-c2nc3cc(NC(=O)c4c(C(=O)N5CCC5)cnn4C)ccn3n2)ccn1 [Roche-Dataset for PDE10A, Compound 185]', 8.33),
  ('Cn1cc(-c2ccccc2)nc1COc1nc(OC2CCOCC2)c2cc(Cl)ccc2n1 [Roche-Dataset for PDE10A, Compound 100]', 7.80),
  ('COC[C@H]1CCCN1c1nc(/C=C/c2nc3c(C)ncc(C)n3n2)n(C)n1 [Roche-Dataset for PDE10A, Compound 388]', 8.26),
  ('CN(C)C(=O)Cn1cc(NC(=O)c2nc(C3CC3)cnc2Nc2cncnc2)cn1 [Roche-Dataset for PDE10A, Compound 787]', 6.17),
  ('Cn1ncc(C(=O)N2CCC2)c1C(=O)Nc1cc2nc(-c3ccccc3)nn2cc1F [Roche-Dataset for PDE10A, Compound 204]', 9.11),
  ('Cn1nc(N2CCCC2)nc1CCc1nc2cnc(C#N)cn2n1 [Roche-Dataset for PDE10A, Compound 500]', 5.38),
  ('Cc1cnn2c(C)c(CCc3nc(N4CCCC4)nn3C)nc2c1C [Roche-Dataset for PDE10A, Compound 216]', 7.70),
  ('CCNC(=O)c1c(NC(=O)c2c(C(=O)N3CCC3)cnn2C)cnn1C [Roche-Dataset for PDE10A, Compound 1120]', 5.50),
  ('COc1cnc(C)n2nc(CCc3nc(N4CCCC4)nn3C)nc12 [Roche-Dataset for PDE10A, Compound 671]', 7.96),
  ('Cn1nc(-c2ccc(C(F)(F)F)cn2)cc1NC(=O)c1c(C(=O)N2CCC2)cnn1C [Roche-Dataset for PDE10A, Compound 634]', 7.59),
  ('Cn1ncc(C(=O)N2CCC2)c1C(=O)Nc1cn(-c2cccc(C(F)(F)F)n2)cn1 [Roche-Dataset for PDE10A, Compound 802]', 5.50),
  ('Cn1cc(-c2ccccc2)nc1COc1ncc(C2CC2)nc1C(=O)NCC1CC1 [Roche-Dataset for PDE10A, Compound 191]', 6.66),
  ('CCOC(=O)c1nnsc1NC(=O)c1nc(C2CC2)ccc1Nc1cncnc1 [Roche-Dataset for PDE10A, Compound 1107]', 7.44),
  ('Cn1cc(-c2ccccc2)nc1C#Cc1ccc2nc(C(F)(F)F)cn2n1', 7.92),
  ('O=C(Nc1ccnn1CC(F)F)c1nc(C2CC2)ccc1Nc1cncnc1 [Roche-Dataset for PDE10A, Compound 642]', 7.34),
  ('O=C(Nc1cnccc1Cl)c1nc(C2CC2)ccc1Nc1cncnc1 [Roche-Dataset for PDE10A, Compound 995]', 7.68),
  ('Cc1nc2ccccc2nc1CCc1nc(-c2ccccc2)cn1-c1ccccn1 [Roche-Dataset for PDE10A, Compound 17]', 8.74),
  ('Cc1oc(-c2ccccc2)nc1CCNC(=O)c1nc(C2CC2)cnc1Nc1cncnc1 [Roche-Dataset for PDE10A, Compound 202]', 8.51),
  ('CCOC(=O)c1cnn(C)c1C(=O)N(C)c1ccn2nc(-c3ccccc3)nc2c1 [Roche-Dataset for PDE10A, Compound 825]', 5.00),
  ('O=C(Nc1ccnn1CCO)c1nc(C2CC2)ccc1Nc1cncnc1 [Roche-Dataset for PDE10A, Compound 860]', 7.31),
  ('Cn1cc(-c2ccccc2)nc1COc1nc2ccccc2nc1C(F)(F)F [Roche-Dataset for PDE10A, Compound 644]', 7.59),
  ('Cn1ncc(C(=O)N2CCC2)c1C(=O)N[C@@H]1CCn2c(nc(-c3ccccc3)c2Cl)C1 [Roche-Dataset for PDE10A, Compound 225]', 8.16),
  ('CNC(=O)c1cc2[nH]c(-c3ccccc3)nc2cc1NC(=O)c1c(C(=O)N2CCOCC2)cnn1C [Roche-Dataset for PDE10A, Compound 453]', 6.71),
  ('CCc1nc(C)c(C(=O)Nc2cc3nc(-c4ccccc4)[nH]c3cc2C(=O)NCC2(C)COC2)o1 [Roche-Dataset for PDE10A, Compound 178]', 8.45),
  ('Cn1ncc(C(=O)NCc2cc(C(F)(F)F)ccn2)c1C(=O)Nc1ccn2cc(-c3ccccc3)nc2n1 [Roche-Dataset for PDE10A, Compound 1156]', 5.56),
  ('Cc1cnc(C)n2nc(CCc3nc(NCCCCl)nn3C)nc12 [Roche-Dataset for PDE10A, Compound 725]', 6.36);
